Test: Quantitative NMR solubility experiments
Type: physicochemical
Settings: 6 M HCl, 300 K
ATTRIBUTE_MEASURED: concentration of dissolved L (µM)
Write it as a number; the unit µM goes unstated.

concentration of dissolved L measured on CN(CCN(C)C(=O)c1ccccc1)C(=O)c1ccccc1 = 320
